Data provenance is ChEMBL document CHEMBL3045463.

Tested on: Bemisia tabaci
EXPERIMENT DESCRIPTION: Insecticidal activity against B-biotype thiamethoxam-sensitive Bemisia tabaci (sweet potato whitefly) in cabbage leaf assessed as mortality after 48 hr by leaf disk assay
Assay type: functional
REPORTED CONDITIONS: foliar

>  <MOLECULE>
N#Cc1nn(-c2c(Cl)cc(C(F)(F)F)cc2Cl)c(N)c1[S+]([O-])C(F)(F)F (centres undefined)

>  <LC50, µg/mL>
4.11

$$$$
>  <MOLECULE>
O=[N+]([O-])/N=C1\NCCN1Cc1ccc(Cl)nc1

>  <LC50, µg/mL>
8.72

$$$$
>  <MOLECULE>
CC1(C)[C@H](C(=O)O[C@H](C#N)c2cccc(Oc3ccccc3)c2)[C@@H]1C=C(Br)Br

>  <LC50, µg/mL>
701

$$$$
>  <MOLECULE>
CCN(Cc1ccc(Cl)nc1)/C(=C/[N+](=O)[O-])NC

>  <LC50, µg/mL>
2.22

$$$$

---

System: Bemisia tabaci
EXPERIMENT DESCRIPTION: Insecticidal activity against B-biotype thiamethoxam-sensitive Bemisia tabaci (sweet potato whitefly) in cabbage leaf assessed as mortality after 48 hr by leaf disk assay
Format: functional
REPORTED CONDITIONS: foliar
QUANTITY KIND: LC50 (µg/mL)

>  <QUERY SMILES>
CCCCN(CCCC)SN(C)C(=O)Oc1cccc2c1OC(C)(C)C2

>  <QUANTITY KIND>
LC50

>  <VAL>
441

$$$$
>  <QUERY SMILES>
CCOP(=S)(OCC)Oc1nc(Cl)c(Cl)cc1Cl

>  <QUANTITY KIND>
LC50

>  <VAL>
601

$$$$
>  <QUERY SMILES>
C/C(=N\C#N)N(C)Cc1ccc(Cl)nc1

>  <QUANTITY KIND>
LC50

>  <VAL>
1.98

$$$$
>  <QUERY SMILES>
CN1COCN(Cc2cnc(Cl)s2)/C1=N\[N+](=O)[O-]

>  <QUANTITY KIND>
LC50

>  <VAL>
17.6

$$$$
